The reported numbers originate from paper PMC8992272.

- procedure summary: Stability in nonbuffered D2O at room and elevated temperature (1H NMR)
- Format: physicochemical
- reported conditions: nonbuffered D2O, room temperature; read-out: estimated half-life (converted)
assay readout: half-life at 35 mM (days)
Your answer should be a plain number; it is taken to be in days.

Qu. Consider the compound CC(=O)NC(CSSSSCC(NC(C)=O)C(=O)O)C(=O)O (stereo not shown) [NAC tetrasulfide, N-Acetylcysteine Tetrasulfide] . State its measured half-life at 35 mM.
Ans. 17.8

* * *

- procedure summary: Stability in water/D2O buffered at different pH values, tracked by 1H NMR
- Assay type: physicochemical
- reported conditions: buffered water/D2O, pH 5.8, pH 5.8; read-out: estimated half-life (converted)
assay readout: half-life (days)
Your answer should be a plain number; it is taken to be in days.

Qu. Consider the compound CC(=O)NC(CSSSSCC(NC(C)=O)C(=O)O)C(=O)O (stereo not shown) [NAC tetrasulfide, N-Acetylcysteine Tetrasulfide] . State its measured half-life.
Ans. 53.3

* * *

- procedure summary: Stability in D2O in the presence of butylamine or triethylamine, tracked by 1H NMR
- Type: physicochemical
- reported conditions: D2O with butylamine or triethylamine, in the presence of butylamine and triethylamine (both amines); read-out: upper limit of the half-life
assay readout: half-life at 73 mM

Qu. Consider the compound CC(=O)NC(CSSSSCC(NC(C)=O)C(=O)O)C(=O)O (stereo not shown) [NAC tetrasulfide, N-Acetylcysteine Tetrasulfide] . State its measured half-life at 73 mM.
Ans. ≤ 1.6 min

* * *

compounds and their reported half-life
- procedure summary: Stability in water/D2O buffered at different pH values, tracked by 1H NMR
- Format: physicochemical
- reported conditions: buffered water/D2O, pH 9, pH 9.0; read-out: estimated half-life (converted)
Your answer should be a plain number; it is taken to be in h.

N[C@@H](CSSSC[C@H](N)C(=O)O)C(=O)O [cysteine trisulfide, Cysteine Trisulfide]: 274

Qu. Consider the compound CC(=O)NC(CSSSSCC(NC(C)=O)C(=O)O)C(=O)O (centres unmarked) [NAC tetrasulfide, N-Acetylcysteine Tetrasulfide] . State its measured half-life.
Ans. 197

* * *

- procedure summary: Stability in water/D2O buffered at different pH values, tracked by 1H NMR
- Type: physicochemical
- reported conditions: buffered water/D2O, pH 7, pH 7.0; read-out: estimated half-life (converted)
assay readout: half-life (days)
Your answer should be a plain number; it is taken to be in days.

Qu. Consider the molecule N[C@@H](CSSSC[C@H](N)C(=O)O)C(=O)O [cysteine trisulfide, Cysteine Trisulfide] . State its measured half-life.
Ans. 16.9

* * *

- procedure summary: Stability in D2O in the presence of butylamine or triethylamine, tracked by 1H NMR
- Format: physicochemical
- reported conditions: D2O with butylamine, in the presence of butylamine, D2O, early data points; read-out: estimated half-life of degradation (converted)
molecules and their reported half-life
Your answer should be a plain number; it is taken to be in h.

CC(=O)N[C@@H](CSSSC[C@H](NC(C)=O)C(=O)O)C(=O)O [NAC trisulfide, N-Acetylcysteine Trisulfide]: 0.94

Turning now to a further molecule:
Qu. Consider the molecule N[C@@H](CSSSC[C@H](N)C(=O)O)C(=O)O [cysteine trisulfide, Cysteine Trisulfide] . State its measured half-life.
Ans. 2.3

* * *

- procedure summary: Degradation in the presence of butylamine under biologically relevant conditions (37 °C, pH 7.4)
- Format: physicochemical
- reported conditions: D2O buffered to pH 7.4 with butylamine, pH 7.4 D2O, early data points, read-out: estimated half-life (converted)
assay readout: half-life at 10 mM (min)
Your answer should be a plain number; it is taken to be in min.

Qu. Consider the molecule CC(=O)N[C@@H](CSSSC[C@H](NC(C)=O)C(=O)O)C(=O)O [NAC trisulfide, N-Acetylcysteine Trisulfide] . State its measured half-life at 10 mM.
Ans. 46.2
